Cited source for all entries: patent US20210188980A1

Quick reference for off-rate ratio to that of mAb747c among some binders
Molecular target: T1, recombinant human LAG-3-his protein (Novoprotein) (human, UniProt P18627 23-450)
T1 construct: Bought; also called huLAG-3; not shown: His tag
T1 sequence (looked up): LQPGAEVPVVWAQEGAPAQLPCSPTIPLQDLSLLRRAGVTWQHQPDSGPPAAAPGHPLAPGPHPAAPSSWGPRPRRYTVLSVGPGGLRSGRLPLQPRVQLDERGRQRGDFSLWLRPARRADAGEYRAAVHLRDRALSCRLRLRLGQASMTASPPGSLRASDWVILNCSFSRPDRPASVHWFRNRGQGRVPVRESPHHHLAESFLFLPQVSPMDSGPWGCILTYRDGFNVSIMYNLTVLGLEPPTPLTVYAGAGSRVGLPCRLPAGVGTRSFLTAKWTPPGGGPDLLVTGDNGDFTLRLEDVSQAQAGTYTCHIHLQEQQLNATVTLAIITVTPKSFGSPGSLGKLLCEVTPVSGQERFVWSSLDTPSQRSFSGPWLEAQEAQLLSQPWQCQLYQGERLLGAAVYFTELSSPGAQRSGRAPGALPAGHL
Test: BLI Octet, Ab on AHC sensor, huLAG-3-his; test group 2
In your response, put the unit directly after the numeric value.

| Binder | off-rate ratio to that of mAb747c |
| --- | --- |
| HumAb747V-69 (antibody, human IgG1, V domains shown, engineered HumAb747-60 variant; human IgG1/kappa constant domains) VH: EVQLVQSGAEVKKPGATVKLSCTASGFNIKDDYMHWVKQRPEQGLDWIGWIVPENGNTVYASKFQGKATITADTSTNTAYLELSSLRSEDTAVYYCTVYGDYWGQGTTVTVSS VL: DIQMTQSPSSLSASVGDRVTITCRASQEISGYLSWLQQKPGGAIKRLIYAASTLDSGVPSRFSGSRSGSDYTLTISSLQPEDFADYYCLQYASYPLTFGQGTKLELK | 53% |
| HumAb747V-68 (antibody, human IgG1, V domains shown, engineered HumAb747-60 variant; human IgG1/kappa constant domains) VH: EVQLVQSGAEVKKPGATVKLSCTASGFNIKDDYMHWVKQRPEQGLDWIGWIVPENGNTVYASKFQGKATITADTSTNTAYLELSSLRSEDTAVYYCTVYGDYWGQGTTVTVSS VL: DIQMTQSPSSLSASVGDRVTITCRASQEISGYLSWLQQKPGGAIKRLIYAASALDLGVPSRFSGSRSGSDYTLTISSLQPEDFADYYCLQYASYPLTFGQGTKLELK | 41% |
| HumAb747V-72 (antibody, human IgG1, V domains shown, engineered HumAb747-60 variant; human IgG1/kappa constant domains) VH: EVQLVQSGAEVKKPGATVKLSCTASGFNIKDDYMHWVKQRPEQGLDWIGWIVPRNGNTVYASKFQGKATITADTSTNTAYLELSSLRSEDTAVYYCTVYGDYWGQGTTVTVSS VL: DIQMTQSPSSLSASVGDRVTITCRASQEISGYLSWLQQKPGGAIKRLIYAASALDLGVPSRFSGSRSGSDYTLTISSLQPEDFADYYCLQYASYPLTFGQGTKLELK | 37% |
| mAb747c (antibody, V domains shown, also called mAb717c) VH: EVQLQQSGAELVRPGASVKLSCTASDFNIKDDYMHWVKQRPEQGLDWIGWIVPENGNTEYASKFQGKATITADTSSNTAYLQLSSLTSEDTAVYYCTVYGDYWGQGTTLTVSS VL: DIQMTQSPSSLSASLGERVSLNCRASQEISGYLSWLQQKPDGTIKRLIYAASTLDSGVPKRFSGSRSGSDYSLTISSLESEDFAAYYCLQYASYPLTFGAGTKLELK | 100% |
| HumAb747V-70 (antibody, human IgG1, V domains shown, engineered HumAb747-60 variant; human IgG1/kappa constant domains) VH: EVQLVQSGAEVKKPGATVKLSCTASGFNIKDDYMHWVKQRPEQGLDWIGWIVPRNGNTVYASKFQGKATITADTSTNTAYLELSSLRSEDTAVYYCTVYGDYWGQGTTVTVSS VL: DIQMTQSPSSLSASVGDRVTITCRASQEISGYLSWLQQKPGGAIKRLIYAASTLDLGVPSRFSGSRSGSDYTLTISSLQPEDFADYYCLQYASYPLTFGQGTKLELK | 40% |
| HumAb747V-71 (antibody, human IgG1, V domains shown, engineered HumAb747-60 variant; human IgG1/kappa constant domains) VH: EVQLVQSGAEVKKPGATVKLSCTASGFNIKDDYMHWVKQRPEQGLDWIGWIVPRNGNTVYASKFQGKATITADTSTNTAYLELSSLRSEDTAVYYCTVYGDYWGQGTTVTVSS VL: DIQMTQSPSSLSASVGDRVTITCRASQEISGYLSWLQQKPGGAIKRLIYAASALDSGVPSRFSGSRSGSDYTLTISSLQPEDFADYYCLQYASYPLTFGQGTKLELK | 43% |

Now consider the entry below.
response.value for HumAb747V-67 (antibody, human IgG1, V domains shown, engineered HumAb747-60 variant; human IgG1/kappa constant domains) VH: EVQLVQSGAEVKKPGATVKLSCTASGFNIKDDYMHWVKQRPEQGLDWIGWIVPENGNTVYASKFQGKATITADTSTNTAYLELSSLRSEDTAVYYCTVYGDYWGQGTTVTVSS VL: DIQMTQSPSSLSASVGDRVTITCRASQEISGYLSWLQQKPGGAIKRLIYAASALDSGVPSRFSGSRSGSDYTLTISSLQPEDFADYYCLQYASYPLTFGQGTKLELK (field: off-rate ratio to that of mAb747c) = 47%
